# Assay: Neurotoxicity in ip dosed NMRI mouse assessed as dose required to cause minimal motor impairment after 0.5 hrs by rotarod test
# Type: toxicity, organism-based
# Run conditions: in vivo, read-out: MTC50
Parameter: TD50 at 0.5 h
Reply with the number and its unit after it.

| Test smiles | TD50 at 0.5 h |
| --- | --- |
| Cc1cccn2c(/C=N/OCc3cn(Cc4ccc(C#N)cc4)nn3)c(-c3ccc(F)cc3)nc12 | 100 mg/kg |

Proceed to the following item.
### Prompt Entry under review: Cc1cccn2c(/C=N/OCc3cn(Cc4ccc([N+](=O)[O-])cc4)nn3)c(-c3ccc(F)cc3)nc12 . Reported TD50 at 0.5 h?
### Response 100 mg/kg

----------
# Test system: Mus musculus
# Assay: Anticonvulsant activity in ip dosed NMRI mouse assessed as dose required to cause protection against maximal electroshock-induced seizures after 0.5 hrs
# Type: functional
# Run conditions: read-out: MED
minimal effective dose values for the compounds below.

Consider the reported minimal effective dose for these compounds:
| Test smiles | Parameter | Result |
| --- | --- | --- |
| O=C1NC(=O)C(c2ccccc2)(c2ccccc2)N1 | minimal effective dose | 20 mg/kg |
| C#CCO/N=C/c1c(-c2ccc(C)cc2)nc2c(C)cccn12 | minimal effective dose | 20 mg/kg |
| Cc1ccc(-c2nc3c(C)cccn3c2/C=N/OCc2cn(Cc3ccc([N+](=O)[O-])cc3)nn2)cc1 | minimal effective dose | 40 mg/kg |

Attention now turns to another entry.
### Prompt # get_value(readout='minimal effective dose', item= Cc1ccc(-c2nc3ccc(Br)cn3c2/C=N/OCc2cn(Cc3ccc([N+](=O)[O-])cc3)nn2)cc1 )
### Response 40 mg/kg

----------
# Test system: Mus musculus
# Assay: Neurotoxicity in NMRI mouse assessed as minimal motor impairment at 20 to 100 mg/kg, ip after 0.5 hrs by rotarod test
# Type: toxicity, organism-based
# Set-up: dose 20-100 mg/kg, route intraperitoneal
# Run conditions: in vivo
Parameter: Activity

The examples below pair each entry with its known result.
| Test smiles | Activity |
| --- | --- |
| Cc1ccc(-c2nc3c(C)cccn3c2/C=N/OCc2cn(Cc3ccc([N+](=O)[O-])cc3)nn2)cc1 | Non-toxic |
| O/N=C/c1c(-c2ccccc2)nc2ccc(Br)cn12 | Non-toxic |
| COc1ccc(Cn2cc(CO/N=C/c3c(-c4ccccc4)nc4c(C)cccn34)nn2)cc1 | Non-toxic |
| Cc1ccc(-c2nc3c(C)cccn3c2/C=N/OCc2cn(Cc3ccc(C#N)cc3)nn2)cc1 | Non-toxic |

Now consider the entry below.
### Prompt Activity of Cc1ccc(Cn2cc(CO/N=C/c3c(-c4ccc(C)cc4)nc4c(C)cccn34)nn2)cc1 on Mus musculus?
### Response Non-toxic
